Reference source for all entries: ChEMBL document CHEMBL4831517

Assay: Solubility of the compound by chemiluminescent nitrogen detection (CLND) method
Format: physicochemical
Quantity kind: solubility kinetic

# Smiles notation, Result
records = [
    ("CC[C@@H](NC(=O)[C@@H]1C[C@H](NC(=O)COCCOCCOCCOCCOc2cc3nccc(Nc4ccc5scnc5c4)c3cc2S(=O)(=O)C(C)(C)C)CN1C(=O)[C@@H](NC(=O)[C@H](C)NC)C(C)(C)C)c1ccccc1", "> 235 µM"),
    ("CN[C@@H](C)C(=O)N[C@H](C(=O)N1CCC[C@H]1c1nc(C(=O)c2ccc(F)cc2)cs1)C1CCN(C(=O)c2ccc(N3CCN(CCOc4cc5ncnc(Nc6n[nH]c(C)c6C)c5cc4S(=O)(=O)C(C)(C)C)CC3)nc2)CC1", "> 304 µM"),
    ("CN[C@@H](C)C(=O)N[C@H](C(=O)N1CCC[C@H]1c1nc(C(=O)c2ccc(F)cc2)cs1)C1CCN(C(=O)c2cnc(N3CCN(CCOc4cc5ncnc(Nc6n[nH]c(C)c6C)c5cc4S(=O)(=O)C(C)(C)C)CC3)nc2)CC1", "> 311 µM"),
]
